# TARGET_UNDER_TEST: T1, AXL Ig1 domain fused to human Fc (Homo sapiens, UniProt P30530)
# T1 construct: AXL receptor tyrosine kinase, human, Ig1 domain of the extracellular domain; Construct limits and production are in the Supplementary Information; also called AXL Ig1-Fc; AXL-Ig1-Fc
# ASSAY_OVERVIEW: BLI; Octet RED96; His-tagged scFv-osmY captured on Ni-NTA tips from undiluted bacterial supernatant (600 s); AXL Ig1 domain Fc 5.6 ug/ml in kinetic buffer (0.02% Tween 20, 0.05% sodium azide, 0.1% BSA in PBS) as analyte; rat Axl-Fc as control; traces scored by eye (normal, fast, very fast, weak, weak fast, none)
# CONDITION_DESCRIPTION: one partner purified

BINDER	binding result
tilvestamab scFv-osmY F33Y (scFv, V domains shown, VH of tilvestamab, as the VH of m1; numbers count on: the scFv-osmY fusion protein; linker; VL of tilvestamab, as the VL of m1; source: E. coli T7 expression strain, secreted, culture supernatant used directly; not shown: His6, C-terminal, kept) VH: EVQLVESGGGLVQPGGSLRLSCAASGYSFTDYYINWVRQAPGKGLEWVARIFPGGDNTYYNEKFKGRFTLSADTSKSTAYLQMNSLRAEDTAVYYCARRGLYYAMDYWGQGTLVTVSS VL: DIQMTQSPSSLSASVGDRVTITCRSSQSLVHSNGIPYLHWYQQKPGKAPKLLIYRVSNRFSGVPSRFSGSGSGTDFTLTISSLQPEDFATYYCSQGTHVPPTFGQGTKVEIK	binds
tilvestamab scFv-osmY L102T (scFv, V domains shown, VH of tilvestamab, as the VH of m1; numbers count on: the scFv-osmY fusion protein; linker; VL of tilvestamab, as the VL of m1; source: E. coli T7 expression strain, secreted, culture supernatant used directly; not shown: His6, C-terminal, kept) VH: EVQLVESGGGLVQPGGSLRLSCAASGYSFTDFYINWVRQAPGKGLEWVARIFPGGDNTYYNEKFKGRFTLSADTSKSTAYLQMNSLRAEDTAVYYCARRGTYYAMDYWGQGTLVTVSS VL: DIQMTQSPSSLSASVGDRVTITCRSSQSLVHSNGIPYLHWYQQKPGKAPKLLIYRVSNRFSGVPSRFSGSGSGTDFTLTISSLQPEDFATYYCSQGTHVPPTFGQGTKVEIK	binds
